# assayed-target: GST-Lck-SH2 (UniProt P06239)
# Sequence (P06239 127-224): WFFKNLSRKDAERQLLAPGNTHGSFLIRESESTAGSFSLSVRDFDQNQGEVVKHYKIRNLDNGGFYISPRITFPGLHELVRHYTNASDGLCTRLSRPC
# assay-method-text: fluorescence change on Src-catalysed phosphorylation in presence of GST-Lck-SH2 (1.25 µM peptide, 5 µM Lck-SH2, 12 nM Src, 1 mM ATP)
measured-parameter: Fold change in fluorescence intensity
# do not omit the unit; it follows the number

Entry under review: Src-phosphorylated library peptide with Dap-6 (NBD on Dap) at P+3 of Ac-Glu-Glu-Glu-Ile-Tyr-Gly-Glu-Ile-Glu-Ala . Reported Fold change in fluorescence intensity? 1.3 fold

Entry under review: Src-phosphorylated library peptide with Dab-5 (dapoxyl on Dab) at P+1 of Ac-Glu-Glu-Glu-Ile-Tyr-Gly-Glu-Ile-Glu-Ala . Reported Fold change in fluorescence intensity? 2.4 fold

Entry under review: Src-phosphorylated library peptide with Dap-7 (Cascade Yellow on Dap) at P+2 of Ac-Glu-Glu-Glu-Ile-Tyr-Gly-Glu-Ile-Glu-Ala . Reported Fold change in fluorescence intensity? 1.8 fold

Entry under review: Src-phosphorylated library peptide with Dab-6 (NBD on Dab) at P+2 of Ac-Glu-Glu-Glu-Ile-Tyr-Gly-Glu-Ile-Glu-Ala . Reported Fold change in fluorescence intensity? 1.4 fold

====

# assayed-target: GST-Lck-SH2 (UniProt P06239)
# assay-method-text: fluorescence change on Src-catalysed phosphorylation in presence of GST-Lck-SH2 (1.25 µM peptide, 5 µM Lck-SH2, 12 nM Src, 1 mM ATP)
Kindly state Fold change in fluorescence intensity for each of the entries shown.
Write the value in fold as a bare number.

Entry under review: Src-phosphorylated library peptide with Dab-7 (Cascade Yellow on Dab) at P+4 of Ac-Glu-Glu-Glu-Ile-Tyr-Gly-Glu-Ile-Glu-Ala . Reported Fold change in fluorescence intensity? 1.6

Entry under review: Src-phosphorylated library peptide with Dap-7 (Cascade Yellow on Dap) at P+3 of Ac-Glu-Glu-Glu-Ile-Tyr-Gly-Glu-Ile-Glu-Ala . Reported Fold change in fluorescence intensity? 1.6

Entry under review: Src-phosphorylated library peptide with Dap-6 (NBD on Dap) at P+4 of Ac-Glu-Glu-Glu-Ile-Tyr-Gly-Glu-Ile-Glu-Ala . Reported Fold change in fluorescence intensity? 1.3

Entry under review: Src-phosphorylated library peptide with Dap-5 (dapoxyl on Dap) at P+2 of Ac-Glu-Glu-Glu-Ile-Tyr-Gly-Glu-Ile-Glu-Ala . Reported Fold change in fluorescence intensity? 2.4

Entry under review: Src-phosphorylated library peptide with Dap-7 (Cascade Yellow on Dap) at P+4 of Ac-Glu-Glu-Glu-Ile-Tyr-Gly-Glu-Ile-Glu-Ala . Reported Fold change in fluorescence intensity? 1.4

====

# assayed-target: GST-Lck-SH2 (UniProt P06239)
# assay-method-text: fluorescence change on Src-catalysed phosphorylation in presence of GST-Lck-SH2 (1.25 µM peptide, 5 µM Lck-SH2, 12 nM Src, 1 mM ATP)
Lab note: cut-off is 2 fold. Strictly less in Fold change in fluorescence intensity is true (1). Exactly 2 fold or more is false (0).

Lab note: Fold change in fluorescence intensity threshold 2 fold. Does this substance come in strictly under it? Src-phosphorylated library peptide with Dap-5 (dapoxyl on Dap) at P+3 of Ac-Glu-Glu-Glu-Ile-Tyr-Gly-Glu-Ile-Glu-Ala false (0)

Lab note: Fold change in fluorescence intensity threshold 2 fold. Does this substance come in strictly under it? Src-phosphorylated library peptide with Dab-7 (Cascade Yellow on Dab) at P+3 of Ac-Glu-Glu-Glu-Ile-Tyr-Gly-Glu-Ile-Glu-Ala false (0)

Lab note: Fold change in fluorescence intensity threshold 2 fold. Does this substance come in strictly under it? Src-phosphorylated library peptide with Dab-7 (Cascade Yellow on Dab) at P+2 of Ac-Glu-Glu-Glu-Ile-Tyr-Gly-Glu-Ile-Glu-Ala true (1)

Lab note: Fold change in fluorescence intensity threshold 2 fold. Does this substance come in strictly under it? Src-phosphorylated library peptide with Dap-7 (Cascade Yellow on Dap) at P+1 of Ac-Glu-Glu-Glu-Ile-Tyr-Gly-Glu-Ile-Glu-Ala true (1)

Lab note: Fold change in fluorescence intensity threshold 2 fold. Does this substance come in strictly under it? Src-phosphorylated library peptide with Dab-7 (Cascade Yellow on Dab) at P+1 of Ac-Glu-Glu-Glu-Ile-Tyr-Gly-Glu-Ile-Glu-Ala true (1)

Where these numbers come from: patent US20060211075A1
